Let's look at some sequences and their measured PBM binding z-score.
# Test system: THRa:RXRa (NR concentration 90 nM, RXRa partner concentration 90 nM)
# Method: PBM binding z-score (relative to random genomic background probes); higher = stronger binding; sequences stand for … in GC…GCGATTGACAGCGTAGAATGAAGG
Measured metric: PBM binding z-score

INSERT INTO measurements (sequence_data, value_measured) VALUES
  ('AGAACGAGGGCAATGAGTTGATAGCCCGGGTGGC', 0.913),
  ('TTTTGTAGATCAACAGGAGGTTAAGAAAGATCGA', 1.23),
  ('TATACAGTGTCAAAGGCCAGAGTACGAATGTCGA', 0.336),
  ('CCGACTGGGGCAGAAAGGTTACAATACCATCCGG', 0.907),
  ('CCAGACAGGTTAGAAGGTAACTCAGCCTCGATTA', 0.493),
  ('AGTCAAAGTTCGGGACGAGGTAACGTAAAGCACG', 2.89),
  ('CGAACTAGGTCATCCAGGACTGTGAATACATTGA', 2.95),
  ('ATCGAAAGGTAGAAGGTGAGTATACCCACCCGAA', 0.231),
  ('AGTCAGAGTTCACTAGGTAACGTAAGATTCAGCT', 1.85),
  ('ATCGACAGGTCGACGAGGTGAGTATACACCGTTT', 2.58),
  ('TCGAGTAGGTTACCAATGGGGCATGCAGCTTTCT', 0.0319),
  ('CCTAGCACGCCAATCTGGGTCACTCAAGGCTTGA', 2.61),
  ('GGAACGAGGGCAAAGTTGATAGCTTCTGTCGACG', 1.13),
  ('CGAACTAGTTCATCCAGGACAGTGAATACATTGA', 2.23),
  ('CAAACTAGGTAACGAAAGGTCAAAGTCGAATGAC', 4),
  ('CGAACTAGGTCAAGGACAGTGACTCTCCGCACGC', 3.31),
  ('CCGACTCGGGCAGAAAGGTTACCATACCATCCGG', 1.01),
  ('ATACCAAGGTGATCGTGAGGTCGTTGCTACTAAC', 3.25),
  ('TCATTTAGGTAAAGGTGAAAGTCGAACGATATGA', 2.01),
  ('GCTAGCAGGCCGTTTGGGTCACTCAATGACGGGC', 1.61),
  ('TCAGACAGGTGAAGGTGACTCAGGTACGCAGTCG', 1.66),
  ('CTGCCTAGGTCAGGGCCAGTATAGGAGGAACGTT', 1.88),
  ('CGAACTAGGTCAAGGACAGTGATTCTCCGCACGC', 3.42),
  ('CCTATTAGTGGACCATAAGGGCAACCGAAGCTCG', 1.38),
  ('TGAATGCGGTTATAAGATCAGGGAACGTTGCAAA', -0.183),
  ('TCTTGAAGATCAACAGGAGGTTAAGAAAGATCGA', 0.975);

====

Listed next: entries and their corresponding PBM binding z-score.
# Tested on: RARg homodimer (NR concentration 270 nM)
# Method: PBM binding z-score (relative to random genomic background probes); higher = stronger binding; sequences stand for … in GC…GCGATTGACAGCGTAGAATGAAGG
Measured metric: PBM binding z-score

INSERT INTO measurements (sequence_data, value_measured) VALUES
  ('TCTCGGAGGACACGAAAGGTCAGATCTCGACATC', 4.87),
  ('ATCTCAAGGTAACCAAGTTCAGTGAATGCCGAAC', 1.06),
  ('CCTTACGGGTCAAGGTGATAGCACGGGTGGTACG', 4.64),
  ('CCGATTGGGGCATAAGGTTACCATAAGCCAGCCC', 1.12),
  ('CGAACGTGGGCATGAGTTGATAGCAAATGCCGAT', -0.218),
  ('CAAACTAGGTCAAAGAGGTCAAAGTCCGTGCGTA', 6.81),
  ('CCGAGTAGGGTATGGGGCATTCAGGCAACGGTGA', -0.189),
  ('TGAACGAGGTTATAAGATCAGGGAACGTTGCAAA', 1.1),
  ('ATCTCTAGGTAACCAAGTTCAGTGGATGCCGAAC', 0.959),
  ('CCTATCAGGCCAATCTGGGTCACTCAAGGCTTGA', 1.71),
  ('CAGTCTAGGTCAGGGCCAGTATAGGAGGAACGTT', 3.96),
  ('ATCGAAAGGTAGACGAGGTGAGTATACACCGTTT', 0.758),
  ('GTACCAAGGGGAATAGGTCGTTGATGAGTAGGCG', 0.371),
  ('CCTTACGGGTCACTCCAGCTTATAGCATCGGAGT', 4.22),
  ('ATATGTGGGTTACATCCGGGTCATTCAGGCTATG', 1.94),
  ('TAGTCTAGGTCATGCGGGCCAGTATAGTGTCGGC', 4.69),
  ('TCATATAGGTAATACAGGTGAAATTCGGCATCTA', 0.496),
  ('AATACAGGGTCACTATGCCAGAGTAGGTACGAAT', 4.14),
  ('ATCTCTAGGTAAGACTCAGTGCAGTGAAGAACGC', 0.117),
  ('CCGACTTGGGCATAAGGTTACCATAAGCCAGCCC', 0.236),
  ('TCTGCTAGGACAACGATGGTCAGCTAATCTGCTA', 0.34),
  ('TCTAGCAGGCCAGTGGGTCACTCAAGAGGTACGG', 1.24),
  ('TCTATTAGTTGGAGGGCAACCGACGAGTCCGTTT', 0.781),
  ('GGAACGAGGGCAATCGAGTTGATAGCATGGCGAT', 1.22),
  ('CTCGAAAGTTCGGTTGAGGTGAGTATACGGATAA', 0.973),
  ('CCAGACAGGTGAAAGGTATCTCAGTCTGGTACGC', 0.554),
  ('ATCTCTAGGTAACCAAGTTCAGTGCATGCCGAAC', 0.952),
  ('GCCTATAGGTAATACAAGGTGAAAGTCCGATTGT', 0.334),
  ('GCTTGTAGATCAAGTTTAAGAAAGACTAAGCTAA', -0.0872),
  ('TCTCGGAGGACACGAAAGGTCAGAGCCCGACATC', 5.5),
  ('ATCTCTAGGTAAAGATAGTTCAGTGATTGCAAAT', 0.722),
  ('ATCTCTAGGTAACCGAGTTCAGTGAATGCCGAAC', 0.669),
  ('ACTCGGAGGACAAAGGTCAGAGCCACGCCAGTGA', 5.6),
  ('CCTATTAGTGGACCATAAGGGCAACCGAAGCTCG', 0.657),
  ('AATACAGGGTCATCGTAGCCCAGAGTACGCACAG', 4.42),
  ('TCATATAGGTAAAGCTGAAAGTCGAACGATATGA', 0.377),
  ('CTCGAAAGGTCGGTGGAGGTGAGTATACGGATAA', 2.83),
  ('TTTGCTAGGTCAGTTGGTCAGCTAACGAGCTGCC', 3.54),
  ('CCGACTGGGGCAGAAACGTTACCATACCATCCGG', -0.0645),
  ('ACAGACAGGTGATGAAGGTGACTCAGGCTATCAT', 0.55),
  ('ACTAGCAGGCCAAGTTCGGGTCACTCAAACAAAG', 2.14),
  ('GCTATTAATTGAAAGGGCAACCGAATGATTCTCG', 1.26),
  ('CGTCCAAGGTCAGAAAGGTCAGTGAATGCCGAGT', 6.89),
  ('GATACAGGGTCACGGCCAGAGTACGCGTATTGAT', 6.18),
  ('TCTAGTTGGTCACGGAGGTTACACACGACGGGTA', 2.43),
  ('CCGACTGGGGCATAAGGTTTCCATAAGCCAGCCC', -0.139),
  ('ACTCGGAGGACAAAGGTCAGCGCTACGCCAGTGA', 5.4),
  ('ATATGTATGTTAAGGGTCATTCAGGTTGGTTCGC', 2.66),
  ('ACTCGCAGGCCAAGGGTCACTCAAGATTAGTCCG', 3.98),
  ('GCTTACGGGTCGAAGGTTATAGCATGAATAGAAT', 1.28),
  ('CCGAGTAGGTTCTGGGGCATTCAGGCAACGGTGA', -0.495);
